Data credit: patent US20200223889A1

Let's look at some binders and their measured pKi.
- tgt: T1, human melanocortin 4 receptor (human, UniProt P32245 1-332)
- T1 construct: whole, on cells; cAMP assay on whole BHK cells; also called MC4R; human MC4 receptor
- procedure summary: competition with 125-NDP-α-MSH, BHK human MC4R membranes
pKi: −log10 of the molar value. Positions of bridges follow the written chain, without caps; N, C: chain ends. Non-standard residues stand in square brackets, D forms with d. Thz = O=C(O)[C@@H]1CSCN1; Aze = O=C(O)[C@@H]1CCN1
parameter: pKi

binder: cyclo(C[Thz]H[dF]HWCAKKKW) (disulfide 1-7; SMILES C[C@@H]1NC(=O)[C@@H]2CSSC[C@H](NC(=O)[C@H](Cc3c[nH]c4ccccc34)NC(=O)[C@H](CCCCN)NC(=O)[C@H](CCCCN)NC(=O)[C@H](CCCCN)NC1=O)C(=O)N1CSC[C@H]1C(=O)N[C@@H](Cc1c[nH]cn1)C(=O)N[C@H](Cc1ccccc1)C(=O)N[C@@H](Cc1c[nH]cn1)C(=O)N[C@@H](Cc1c[nH]c3ccccc13)C(=O)N2, also called c[c[Cys-THAZ-His-D-Phe-His-Trp-Cys]-Ala-Lys-Lys-Lys-Trp]) [Chem. 81]
parameter: pKi
numeric result: 10.52
//
binder: cyclo(C[Aze]H[dF]HWCAKKKW) (disulfide 1-7; SMILES C[C@@H]1NC(=O)[C@@H]2CSSC[C@H](NC(=O)[C@H](Cc3c[nH]c4ccccc34)NC(=O)[C@H](CCCCN)NC(=O)[C@H](CCCCN)NC(=O)[C@H](CCCCN)NC1=O)C(=O)N1CC[C@H]1C(=O)N[C@@H](Cc1c[nH]cn1)C(=O)N[C@H](Cc1ccccc1)C(=O)N[C@@H](Cc1c[nH]cn1)C(=O)N[C@@H](Cc1c[nH]c3ccccc13)C(=O)N2, also called c[c[Cys-AZE-His-D-Phe-His-Trp-Cys]-Ala-Lys-Lys-Lys-Trp]) [Chem. 82]
parameter: pKi
numeric result: 10.15
